- ASSAYED TARGET: Mineralocorticoid receptor (Rattus norvegicus, UniProt P22199)
- Sequence (P22199 whole entry): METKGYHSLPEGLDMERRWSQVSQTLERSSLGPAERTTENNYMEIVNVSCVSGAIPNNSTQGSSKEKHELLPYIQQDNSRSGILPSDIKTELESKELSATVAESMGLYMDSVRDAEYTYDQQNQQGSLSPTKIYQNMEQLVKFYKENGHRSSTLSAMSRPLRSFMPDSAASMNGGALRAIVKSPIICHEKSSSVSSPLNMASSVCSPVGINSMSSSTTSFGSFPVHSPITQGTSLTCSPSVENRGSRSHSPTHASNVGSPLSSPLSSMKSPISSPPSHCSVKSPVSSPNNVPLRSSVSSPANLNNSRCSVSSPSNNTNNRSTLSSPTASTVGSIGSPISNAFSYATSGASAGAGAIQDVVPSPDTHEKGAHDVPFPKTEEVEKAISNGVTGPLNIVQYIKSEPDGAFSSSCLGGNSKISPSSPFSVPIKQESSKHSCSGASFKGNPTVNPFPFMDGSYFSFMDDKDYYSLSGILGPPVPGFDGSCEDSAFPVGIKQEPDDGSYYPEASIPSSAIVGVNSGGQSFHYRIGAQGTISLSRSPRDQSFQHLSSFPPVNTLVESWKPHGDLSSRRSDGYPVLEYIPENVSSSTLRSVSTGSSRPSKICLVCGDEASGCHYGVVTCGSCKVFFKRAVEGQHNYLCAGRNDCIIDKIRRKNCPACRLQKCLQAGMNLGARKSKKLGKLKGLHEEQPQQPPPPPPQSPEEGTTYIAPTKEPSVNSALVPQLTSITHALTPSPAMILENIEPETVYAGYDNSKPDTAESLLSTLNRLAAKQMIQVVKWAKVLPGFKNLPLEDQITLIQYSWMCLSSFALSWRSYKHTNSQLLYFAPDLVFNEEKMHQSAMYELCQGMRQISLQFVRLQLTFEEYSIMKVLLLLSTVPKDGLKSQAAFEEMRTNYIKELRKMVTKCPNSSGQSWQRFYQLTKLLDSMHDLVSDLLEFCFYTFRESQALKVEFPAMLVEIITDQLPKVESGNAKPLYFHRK
REPORTED ENDPOINT: pKi
# log scale: pKi equals minus log10 of the concentration in mol/L

[ask] I would be grateful if you could share the reported pKi for CC#C[C@]1(O)CC[C@H]2[C@@H]3CCC4=CC(=O)CCC4=C3[C@@H](c3ccc(N(C)C)cc3)C[C@@]21C .
[reply] 6.19
